TEST METHOD NOTES: reduction of polyQ htt aggregates in cells – imaging, exon1htt(103Q)mCFP cells, high-content imaging, primary screen (AID 483);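 also: compound exposure lasted 3 days before fixation; percent of the per-plate median nuclei count of sample wells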
RECORDED CONDITIONS: exon1htt(103Q)mCFP cell line, aggregate imaging, at 2 µM; measured here: cell count, toxicity
Under this convention, Satisfied denotes nuclei count strictly below 90% and Not satisfied denotes nuclei count at or above 90%.

Qu. Take the molecule O=C(C1CCN(S(=O)(=O)c2cccc3cccnc23)CC1)N1CCN(C2CCCCC2)CC1 and say whether its nuclei count is less than 90%.
Ans. Satisfied

Qu. Below 90% on nuclei count? Entry CN(C1CCCCC1)S(=O)(=O)c1ccc(NC(=O)c2ccco2)cc1
Ans. Not satisfied

* * *

TARGET: Alpha-2C adrenergic receptor (Homo sapiens) (UniProt P18825)
Sequence (P18825 whole entry, looked up): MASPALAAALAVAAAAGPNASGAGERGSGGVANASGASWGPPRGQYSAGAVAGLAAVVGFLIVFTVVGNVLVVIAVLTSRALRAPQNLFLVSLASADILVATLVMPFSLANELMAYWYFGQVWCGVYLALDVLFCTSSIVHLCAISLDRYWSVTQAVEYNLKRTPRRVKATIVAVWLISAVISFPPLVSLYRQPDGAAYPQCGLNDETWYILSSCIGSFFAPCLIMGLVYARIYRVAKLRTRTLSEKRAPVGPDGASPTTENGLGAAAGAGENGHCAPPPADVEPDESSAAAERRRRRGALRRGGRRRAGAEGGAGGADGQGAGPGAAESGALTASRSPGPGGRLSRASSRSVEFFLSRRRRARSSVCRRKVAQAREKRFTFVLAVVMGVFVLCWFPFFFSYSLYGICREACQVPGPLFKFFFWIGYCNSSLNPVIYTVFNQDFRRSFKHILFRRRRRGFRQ
TEST METHOD NOTES: compounds altering alpha2C-coupled GIRK flux – cell-based, HEK293 alpha2C/GIRK1/2, thallium flux, primary screen (AID 624);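 also: slope of fluorescence ratio to pre-addition baseline per second over 15 to 24 s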
RECORDED CONDITIONS: thallium flux BTC fluorescence, at 10 µM, actives lie on both sides
Outcome: Criterion met for slope of at least 0.006; Criterion not met for anything lower.

Qu. Is reported slope greater than or equal to 0.006 here: CCN(CCNC(=O)CS(=O)(=O)Cc1nc(-c2cccc(OC)c2)oc1C)c1ccccc1
Ans. Criterion not met

Qu. Quick check: does O=C(Nc1ccccc1-c1ccccc1)NC1CCN(CC(=O)N2CCOCC2)CC1 have slope greater than or equal to 0.006?
Ans. Criterion met

Qu. API: above_or_equal(metric=slope, cutoff=0.006) for item Cc1ccc(C2Nc3ccccc3-c3nc4ccccc4n32)o1 (stereo unspecified)
Ans. Criterion not met

Qu. Is slope at least 0.006? Consider C/C=C(\C)c1nnc(NC(=O)C(C)C)s1
Ans. Criterion not met

Qu. # bool: slope of CCOC(=O)c1sc(N)c(C(=O)OCC)c1COC(=O)C1CC(=O)N(Cc2ccco2)C1 (stereo unspecified) >= 0.006
Ans. Criterion met

Qu. slope >= 0.006 for O=c1[nH]c(N2CCCCC2)nc2c1CCCC2 ?
Ans. Criterion not met

Qu. State whether the measured slope reaches 0.006, counting equality as reaching it, for CCOc1ccccc1N(CC(=O)N1CCOCC1)S(=O)(=O)c1ccccc1
Ans. Criterion not met

Qu. Item CCOc1ccc(-c2nc(N)ncc2-c2ccccc2)c(O)c1 with slope of 0.006 or above?
Ans. Criterion not met

Qu. Does COc1ccccc1CN1CC(C(=O)NCc2cccnc2)CC1=O (stereo unspecified) have a reported slope of at least 0.006?
Ans. Criterion met

Qu. Dear colleague, could you confirm whether O=C(OCCCCN1C(=O)c2ccccc2C1=O)c1n[nH]c2ccccc12 has slope at or above 0.006?
Ans. Criterion not met

Qu. Given CC1CCCCC1NC(=O)C1CCN(C(=O)NC2CCCCC2)CC1 (stereo unspecified) , state whether its slope is at least 0.006.
Ans. Criterion not met

* * *

TEST METHOD NOTES: reduction of polyQ htt aggregates in cells – imaging, exon1htt(103Q)mCFP cells, high-content imaging, primary screen (AID 483);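 also: compound exposure lasted 3 days before fixation; percent of the per-plate median nuclei count of sample wells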
RECORDED CONDITIONS: exon1htt(103Q)mCFP cell line, aggregate imaging, at 2 µM; measured here: cell count, toxicity
OBSERVED PROPERTY: nuclei count (%)
Your answer should be a plain number; it is taken to be in %.

Qu. Report nuclei count, nothing else, for this molecule: O=C(Nc1ccc2c(c1)OCCO2)C1CCCN1S(=O)(=O)c1cccc2cccnc12 (stereo not given)
Ans. 128

Qu. Name the recorded nuclei count of the molecule listed here: CCOc1ccc(-c2nc(C#N)c(NCc3ccc4c(c3)OCO4)o2)cc1
Ans. 93.8

Qu. Identify the reported nuclei count for the following entry. COc1ccc(OC)c(Nc2nc(-c3sc(N)nc3C)cs2)c1
Ans. 104

Qu. Give recorded nuclei count. O=S(=O)(NCc1cn2ccccc2n1)c1cc(F)ccc1F
Ans. 78.5

Qu. // fetch nuclei count given entry Cc1ccc(CNC(=O)C2CCCN(S(=O)(=O)c3cnc[nH]3)C2)cc1 (stereo not given)
Ans. 102

Qu. Respond only with nuclei count recorded for CCOC(=O)C1CSC(CC(=O)Nc2ccc(Cl)cc2)C(=O)N1 (stereo not given)
Ans. 103

Qu. Report nuclei count, nothing else, for this molecule: Cc1cccc(N2CCN(C(=O)C3CCCN(S(=O)(=O)c4c(C)noc4C)C3)CC2)c1C (stereo not given)
Ans. 102

Qu. Give the value of nuclei count reported for the following: CSC1=C(C#N)C(c2ccc(Cl)cc2)C2=C(CC(C)(C)CC2=O)N1 (stereo not given)
Ans. 81.5

Qu. Return nuclei count (reported value) for this molecule: CCn1c(SCC(=O)Nc2cccc(C)c2)nc2c(c1=O)SC(C)C2 (stereo not given)
Ans. 85.6

Qu. State, in one line, measured nuclei count of COC(=O)CS(=O)(=O)c1nnc([C@H](Cc2ccccc2)NC(=O)OC(C)(C)C)o1
Ans. 84.1

* * *

TEST METHOD NOTES: inhibitors of TNFa-induced NFkB p65 translocation, primary screen, imaging, HUVEC, MLSMR starter and 10KST1 sets (AID 438);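 also: compound added about 3h40 before a 20 min TNFalpha stimulation; signal is the nuclear over cytoplasmic p65 intensity ratio per well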
RECORDED CONDITIONS: HUVEC TNFa-induced p65 nuclear translocation; at 2 µM, stronger effect = higher value, 0% TNFa-plus-vehicle, 100% no-TNFa wells
Active and inactive are the calls of the source.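 How the source made its calls: active means inhibition above 20% together with a positive visual image hit; inconclusive means visual image hit but inhibition not above 20%; inactive means no visual image hit.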
Hi there, I'd appreciate the recorded inhibition for every entry that follows.

Qu. Let me know recorded inhibition for Cn1cccc1Cc1nnc(SCC(=O)Nc2ccccc2F)n1-c1ccc(F)cc1 , thanks.
Ans. -2.3% (inactive)

Qu. Look up and report measured inhibition for this entry: Cn1c(SCc2nc3ccccc3c(=O)[nH]2)nnc1-c1ccco1
Ans. 0% (inactive)

Qu. Identify the reported inhibition for the following entry. O=C(O)C1C2CCC(O2)C1C(=O)NCCC1=CCCCC1 (stereo not drawn)
Ans. 10.4% (inactive)

Qu. Note down inhibition recorded for Cn1c(SCC(=O)Nc2ccc3c(c2)oc2ccccc23)nnc1-c1ccccc1
Ans. -1.1% (inactive)

Qu. Note down inhibition recorded for CCOC(=O)c1c(NC(=O)c2ccn(CC)n2)sc2c1CCCC2
Ans. -10.9% (inactive)

Qu. Let me know recorded inhibition for CCn1c(SCc2cccc(C(F)(F)F)c2)nnc1-c1ccco1 , thanks.
Ans. 4.8% (inactive)

Qu. State its inhibition for this compound: O=S(=O)(NCC1CCCO1)c1ccc2c(c1)OCCO2 (stereo not drawn)
Ans. -5.5% (inactive)

Qu. State its inhibition for this compound: COC(=O)c1cccc(NC(=O)Cc2coc3cc(OC)ccc23)c1
Ans. 11.4% (inactive)

Qu. For the compound Cn1c(=O)cc(NCCc2ccccc2)[nH]c1=O , give its reported inhibition.
Ans. 3.4% (inactive)

Qu. Provide only the value of recorded inhibition for CCOCCCNC(=O)c1ccc2c(c1)N(Cc1ccccc1)C(=O)CS2=O (stereo not drawn)
Ans. -7.4% (inactive)

Qu. For the compound Cc1cc(=O)[nH]c(=S)n1-c1ccccc1 , report inhibition.
Ans. 7.7% (inactive)

Qu. State, in one line, measured inhibition of CC(C)Oc1cc2oc(=O)c3c(c2cc1Cl)CCC3
Ans. 0.8% (inactive)

Qu. Output measured inhibition for this item: COc1ccc(S(=O)(=O)Nc2ccc(F)c(F)c2)cc1Cl
Ans. 8.5% (inactive)

Qu. Respond only with inhibition recorded for CCN1CCCC1CNC(=O)c1cc2c(=O)n(C)c3ccccc3c2n1C (stereo not drawn)
Ans. -5% (inactive)

Qu. Supply reported inhibition belonging to this compound: CC(C)CCNC(=O)C1CCN(C(=O)N(C)C)CC1
Ans. 7% (inactive)

Qu. Provide inhibition value for the following compound: COC(=O)[C@H](C)NC(=O)NCc1ccc(F)cc1
Ans. -23.8% (inactive)

Qu. Supply measured inhibition of CCn1c(SCC(=O)Nc2ccc(C(=O)OC)cc2)nnc1-c1cccs1 in your reply.
Ans. 11.5% (inactive)

Qu. // fetch inhibition given entry CCOC(=O)N1CCN(C(=O)c2csc3c2CCCCC3)CC1
Ans. -27.2% (inactive)

Qu. Supply reported inhibition belonging to this compound: O=C1N(c2ccccc2)C2CS(=O)(=O)CC2N1c1ccc(Br)cc1 (stereo not drawn)
Ans. -12.3% (inactive)

Qu. Recall and state the measured inhibition for CC(=O)Nc1ccc(OC(=O)c2cccs2)cc1 .
Ans. 10.2% (inactive)

Qu. // fetch inhibition given entry O=C(Oc1ccccc1)c1cccc(COC(=O)c2cnccn2)c1
Ans. -1.6% (inactive)

Qu. Supply inhibition value. Item: CC(CCc1ccccc1)NC(=O)CSc1nc(N)cc(N)n1 (stereo not drawn)
Ans. -6% (inactive)

Qu. // Input: O=C(c1ccccc1Cl)N1CCc2ccccc2C1 . Output its inhibition only.
Ans. -4.9% (inactive)

Qu. Note inhibition for the compound shown: Cc1csc(NC(=O)C2CCCO2)n1 (stereo not drawn)
Ans. -11.4% (inactive)

Qu. Complete the entry with inhibition for NC(=O)CN1C(=O)C(O)(CC(=O)c2ccccc2O)c2ccccc21 (stereo not drawn)
Ans. -0.3% (inactive)

Qu. Identify measured inhibition corresponding to NC(=O)CSc1nnc(-c2cc3ccccc3o2)n1Cc1ccccc1
Ans. 6.3% (inactive)

Qu. Provide one value: measured inhibition of CN(C)c1nc(N)nc(-c2nc3ccccc3s2)n1
Ans. -2.1% (inactive)

Qu. Return inhibition for the following compound: Cc1ccc(Cc2c(C)nc3c(C(=O)O)cnn3c2C)cc1
Ans. 7.7% (inactive)

Qu. Assign inhibition to the following record: O=C(O)C1CC(=O)N(CCOc2ccccc2)C1 (stereo not drawn)
Ans. 4.7% (inactive)

Qu. Return value of inhibition for input COc1cccc(C2=Nn3c(nnc3-c3ccccc3O)SC2)c1 , no commentary.
Ans. 3.4% (inactive)

Qu. Look up and state reported inhibition for COc1ccc(S(=O)(=O)N2Cc3ccccc3CC2C(=O)Nc2ccc(O)cc2)cc1OC (stereo not drawn)
Ans. -2.9% (inactive)

Qu. Write down inhibition measured for item COc1ccc(OC)c(NC(=O)CCNS(=O)(=O)c2cccs2)c1
Ans. 7.1% (inactive)

Qu. Quickly give me recorded inhibition for COc1ccc(C(CC(=O)O)NC(=O)c2ccccc2)cc1OC (stereo not drawn)
Ans. -1.6% (inactive)

Qu. # return recorded inhibition for input CCCc1c(O)nc(SCC(=O)NCCc2ccc(OC)c(OC)c2)[nH]c1=O
Ans. -10.8% (inactive)

Qu. Annotate the compound COCCOC(=O)c1c(C)oc2ccc(NS(=O)(=O)c3ccc(F)cc3)cc12 with its measured inhibition.
Ans. 2.5% (inactive)

Qu. Annotate the compound COc1ccc(C(=O)c2ccc(OC)c(N)c2)cc1N with its measured inhibition.
Ans. -11.7% (inactive)

Qu. // fetch inhibition given entry Cc1nnc(SCC(=O)N(C(C)C)C(C)C)nc1C
Ans. 7% (inactive)

Qu. Note down inhibition recorded for CC(=O)N1CCN(C(C)=O)C1c1ccccc1
Ans. 6% (inactive)

Qu. // Input: O=C(CN1C(=O)c2ccccc2C1=O)Nc1ccccc1C(=O)N1CCCC1 . Output its inhibition only.
Ans. 4% (inactive)

Qu. Identify inhibition associated with the compound CCOc1ccccc1OCC(=O)NCc1ccco1
Ans. -3.4% (inactive)

Qu. Give the measured inhibition for CCOC(=O)N1CCN(C(=O)COc2ccc(Br)cc2Cl)CC1
Ans. 2% (inactive)

Qu. Report inhibition for c1cc2c(cc1Cn1cnnn1)OCO2
Ans. 2.1% (inactive)

Qu. Provide measured inhibition value, entry: COc1ccc2c(c1)OC(O)(C(F)F)CC2=O (stereo not drawn)
Ans. 1.5% (inactive)

Qu. Query inhibition for COc1ccccc1C(=O)Nc1ccc(S(=O)(=O)N2CCCC2)cc1
Ans. 2.2% (inactive)

Qu. Indicate its recorded inhibition; the compound in question is Oc1cc(NCc2cccnc2)ccc1-c1nc2ccccc2o1
Ans. 6.8% (inactive)

Qu. Using the record for COc1ccccc1N(CC(=O)Nc1cccnc1)S(C)(=O)=O , state its measured inhibition.
Ans. 9.2% (inactive)

Qu. Give me measured inhibition, please, for this compound: COC(=O)c1ccccc1NC1c2ccccc2C(=O)N1c1cccnc1 (stereo not drawn)
Ans. -6.7% (inactive)

Qu. Return value of inhibition for input CCOC(=O)CC1=C(C(=O)OCC)C(c2ccc(C)o2)C(C#N)=C(N)O1 (stereo not drawn) , no commentary.
Ans. -16.4% (inactive)
